# credit: PubChem BioAssay AID624129

- system: C-X-C chemokine receptor type 6 (Homo sapiens) (UniProt O00574)
- Sequence (O00574 whole entry, looked up): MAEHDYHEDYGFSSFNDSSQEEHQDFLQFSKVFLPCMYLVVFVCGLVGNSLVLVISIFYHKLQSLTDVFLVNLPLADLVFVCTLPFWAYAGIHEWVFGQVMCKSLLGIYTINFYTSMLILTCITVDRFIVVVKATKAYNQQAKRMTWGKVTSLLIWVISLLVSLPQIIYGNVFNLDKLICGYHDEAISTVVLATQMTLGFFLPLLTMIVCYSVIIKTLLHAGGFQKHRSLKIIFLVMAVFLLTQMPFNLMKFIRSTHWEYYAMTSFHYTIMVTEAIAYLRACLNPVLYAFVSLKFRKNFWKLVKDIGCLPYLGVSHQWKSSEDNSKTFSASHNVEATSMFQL
- procedure summary: potency against CXCR6 with APJ panel – cell-based, beta-arrestin, DiscoveRx, uHTS hits, dose response (AID 624129)
- conditions: CXCR6 beta-arrestin (DiscoveRx) antagonist cell assay, CXCR6, dose range 1
Calls of active or inactive are those of the source. How the calls were made is not given here.
attribute measured: IC50

In [3]: df
Out[3]:
                                    compound      endpoint_value
 0  COc1ccc(Nc2ccc([N+](=O)[O-])c3nonc23)c(OC)c1  > 80 µM (inactive)
 1  O=C(Nc1nc(-c2ccccn2)cs1)c1cc(Cl)ccc1[N+](=O)[O-]  > 80 µM (inactive)
 2  Cc1ccc2c(c1)C1CN(C)CCC1N2C(=S)NC(=O)c1ccc(Br)cc1 (stereo not drawn)            inactive
 3      COc1ccc(C(=O)N/N=C(\C)c2ccccn2)cc1OC             2.56 µM
 4  COC(=O)c1ccc2c(c1)C(C)(C)C(/C=C/c1ccccc1O)=[N+]2C            inactive
 5  CN(C(=O)CSC1=Nc2ccccc2C2=NC(c3ccccc3)C(=O)N12)C1CCCCC1 (stereo not drawn)  > 80 µM (inactive)
 6  Cc1ccc(CN2C(=O)C(Cc3ccccc3)Nc3ncnc(N4CCN(c5ccccc5)CC4)c32)cc1 (stereo not drawn)             3.59 µM
 7  CS(=O)(=O)c1ccc(C(=O)OCc2nnc(-c3ccccc3)o2)cc1[N+](=O)[O-]              3.8 µM
 8  CC1(C)CC(=O)C2=C(C1)OC1=C(C(=O)CC(C)(C)C1)C2c1ccc(O)cc1O             10.3 µM
 9  O=[N+]([O-])c1c(Nc2cccc(O)c2)cc(Cl)c2nonc12            inactive
10  Cc1nnc(Sc2cc(NCCCO)c([N+](=O)[O-])c3nonc23)s1             7.25 µM
11    Cc1ccc2oc(/N=C(\N)NC(=O)C(C)(C)C)nc2c1            inactive
12  CC(=O)OCCCNc1cc(Sc2ccc(C)cc2)c2nonc2c1[N+](=O)[O-]  > 80 µM (inactive)
13  CNc1ccc2oc(C[C@H]3O[C@@]4(CC[C@H]3C)O[C@H]([C@H](C)C(=O)c3ccc[nH]3)[C@H](C)C[C@H]4C)nc2c1C(=O)O             5.85 µM
14  O=[N+]([O-])c1ccc(Sc2cccc3cccnc23)c([N+](=O)[O-])c1                5 µM
15         NNc1nc(-c2ccccc2)cc(-c2ccccc2O)n1             9.66 µM
16  CCOc1ccc(NC(=O)CN(C)S(=O)(=O)c2cccs2)cc1  > 80 µM (inactive)
17    CC(C)(C)c1ccc(-n2nc(C#N)c(Cl)cc2=O)cc1             11.5 µM
18  CC1(C)CC(=O)C(C=Nc2ccc(C(=O)c3ccccc3)cc2N=CC2=C(O)CC(C)(C)CC2=O)=C(O)C1            inactive
19  O=[N+]([O-])c1ccc(S(=O)Cc2ccccc2)c([N+](=O)[O-])c1 (stereo not drawn)  > 80 µM (inactive)
20                 Fc1ccc(NC(=S)Nc2nccs2)cc1            inactive
21              C=C(CN(C)C)C(=O)c1ccc(C)cc1C            inactive
22             Cc1c(Cl)sn(-c2ccc(Cl)cc2)c1=O             8.91 µM
23  O=[N+]([O-])c1ccc(Sc2cccc[n+]2[O-])c2nonc12  > 80 µM (inactive)
24  Cc1[nH]n(-c2ccccc2)c(=S)c1C=NCCCN=Cc1c(C)[nH]n(-c2ccccc2)c1=S             1.92 µM
25  CCOC(=O)c1c(SCCN2CCCC2)n(-c2ccccc2)c(=S)n(-c2ccccc2)c1=O  > 80 µM (inactive)
26  Cc1ccnc(N2C(=O)c3cccc4c([N+](=O)[O-])ccc(c34)C2=O)c1              4.5 µM
27         CCc1cc2c(=O)[nH]c(-c3ccccn3)nc2s1             2.61 µM
28  COc1ccc(C(=O)/C=C/C(=O)N(CC(=O)NC2CCCCC2)CC2CCCO2)c(O)c1 (stereo not drawn)  > 80 µM (inactive)
29  COc1ccc(NC(=O)/C(Cl)=C(/Cl)S(=O)Cc2ccccc2)cn1 (stereo not drawn)             6.13 µM
30           Cc1cnc(C(=O)Nc2cccc3cccnc23)cn1            inactive
31  O=c1cc(CSc2ccc(Cl)cc2)nc(-c2ccccn2)[nH]1             4.35 µM
32  C/C(=N\NC(=O)c1cc(-c2cccs2)nc2ccccc12)c1ccccn1             4.85 µM
33  CC(Oc1ccc(F)cc1)C(=O)Nc1nc(-c2ccccn2)cs1 (stereo not drawn)             8.77 µM
34  CCC(C)c1ccc(O)c(NC(=S)NC(=O)c2cccnc2)c1 (stereo not drawn)            inactive
35   CCn1c(Cl)c(C=O)s/c1=N\S(=O)(=O)c1ccccc1             4.78 µM
36  CC(=O)OCCNc1cc(Sc2nc3ccccc3[nH]2)c2nonc2c1[N+](=O)[O-]             6.36 µM
37  C=C1C(=O)c2sccc2C(c2ccc(OC)c(OC)c2)C1COC(C)=O (stereo not drawn)             6.54 µM
38             O=c1oc2ccccc2c(Cl)c1CN1CCCCC1             7.83 µM
39           CCOc1ccc(NCC(=O)c2ccc(C)cc2)cc1            inactive
40  C/C(=N\NC(=O)C(c1ccccc1)c1ccccc1)c1ccccn1             3.04 µM
41  CCOC(=O)c1c(C)oc2c1c(C=NCc1ccccn1)c(O)c1ccccc12             4.14 µM
42  CCC(=O)OCCNc1cc(Sc2nc3ccccc3s2)c2nonc2c1[N+](=O)[O-]             8.94 µM
